Consider the following compounds; for each one, report its relative viability.
tested on: ABC-1; test: relative viability (nuclei count vs DMSO), 5 days (fraction); higher = more cells survive; settings: first compound 0.02 µM
Give your answer as a number; write no unit.

Exercise: Fill in: relative viability of CCNC(=O)c1noc(-c2cc(C(C)C)c(O)cc2O)c1-c1ccc(CN2CCOCC2)cc1 [Luminespib] + O=C(c1cc(Cc2n[nH]c(=O)c3ccccc23)ccc1F)N1CCN(C(=O)C2CC2)CC1 [Olaparib] (partner 8 µM) is ___
Solution: 0.526

Exercise: Fill in: relative viability of CCNC(=O)c1noc(-c2cc(C(C)C)c(O)cc2O)c1-c1ccc(CN2CCOCC2)cc1 [Luminespib] + CS(=O)(=O)N1CCN(Cc2cc3nc(-c4cccc5[nH]ncc45)nc(N4CCOCC4)c3s2)CC1 [Pictilisib] (partner 1 µM) is ___
Solution: 0.407

Exercise: Fill in: relative viability of CCNC(=O)c1noc(-c2cc(C(C)C)c(O)cc2O)c1-c1ccc(CN2CCOCC2)cc1 [Luminespib] + CC(C)C[C@H](NC(=O)[C@H](Cc1ccccc1)NC(=O)c1cnccn1)B(O)O [Bortezomib] (partner 0.002 µM) is ___
Solution: 0.238

Exercise: Fill in: relative viability of CN1CCN(CCOc2cc(OC3CCOCC3)c3c(Nc4c(Cl)ccc5c4OCO5)ncnc3c2)CC1 [Saracatinib] + CC(=O)c1c(C)c2cnc(Nc3ccc(N4CCNCC4)cn3)nc2n(C2CCCC2)c1=O [Palbociclib] (partner 0.5 µM) is ___
Solution: 0.624
